test-readout: melting point

// below: answered molecules
molecule	melting point
CC1(C)N=C(c2cnc3c(Br)cccn23)c2cccc(F)c2C1O (stereo not drawn)	204 to 205 °C
CC1(C)N=C(c2cnn3cc(Cl)ccc23)c2ccccc2C1(F)F	113 to 118 °C

Now look at this one.
# get_value(readout='melting point', item= CC1(C)N=C(c2cnc3ccccn23)c2cccc(F)c2C1(C)C ) 129 to 130 °C

* * *

Give inhibition of growth at 20 ppm for every item shown.
tested on: Gaeumannomyces graminis; assay: Gaeumannomyces graminis / liquid culture (Take-all of cereals); format: cell-based; settings: growth inhibition photometrically 4-5 days after application, compared to untreated control

// worked examples, inhibition of growth at 20 ppm included
compound	inhibition of growth at 20 ppm
CC1(C)Cc2ccccc2C(c2cnc3c(Br)cccn23)=N1 [Compound E-41]	≥ 80%
CC1(C)N=C(c2cnn3cc(Br)ccc23)c2ccccc2C1=O [Compound E-82]	≥ 80%

Proceeding to the next compound to report its inhibition of growth at 20 ppm.
Fill in the blank: the reported inhibition of growth at 20 ppm of Cc1cccc2c(C3=NC(C)(C)C(F)(F)c4ccccc43)cnn12 [Compound E-66] is ____. ≥ 80%

* * *

I'd be grateful if you could share measured melting point for these entries.

compound	recorded-result
COc1ccn2c(C3=NC(C)(C)C(C)(C)c4c(F)cccc43)cnc2c1	139 to 140 °C
CC1(C)N=C(c2cnc3c(F)cccn23)c2cccc(F)c2C1(C)C	156 to 157 °C
CC1(C)N=C(c2cnc3c(F)cccn23)c2cccc(F)c2C1Br (stereo not shown)	211 to 212 °C
Cc1c(F)ccc2c(C3=NC(C)(C)C(F)(F)c4ccccc43)cnn12	115 to 118 °C
Cc1ccc2c(C3=NC(C)(C)C(=O)c4ccccc43)cnn2c1C	152 to 153 °C
CC1(C)Cc2c(Cl)cccc2C(c2cnc3ccc(F)cn23)=N1	142 to 143 °C

The following compounds each have a reported value; give each one's melting point.
1. CC1(C)N=C(c2cnc3ccc(F)cn23)c2cccc(F)c2C1(C)C
2. CSc1cccn2c(C3=NC(C)(C)Cc4c(F)cccc43)cnc12
3. COc1cccn2c(C3=NC(C)(C)C(C)(C)c4c(F)cccc43)cnc12
4. Cc1cccn2ncc(C3=NC(C)(C)C(=O)c4c(F)cccc43)c12
5. CC1(C)N=C(c2cnc3c(C(F)(F)F)cccn23)c2cccc(F)c2C1(C)C
6. CC1(C)N=C(c2cnn3ccccc23)c2cccc(F)c2C1(C)C
7. CC1(C)N=C(c2cnn3c(Cl)cccc23)c2ccccc2C1(F)F

1: 200 to 202 °C; 2: 119 to 120 °C; 3: 130 °C; 4: 141 to 143 °C; 5: 141 to 142 °C; 6: 124 to 126 °C; 7: 129 to 132 °C

Count: 7. Required value per item: melting point.
1. Cc1cccc2c(C3=NC(C)(C)C(=O)c4ccccc43)cnn12
2. Cc1ccn2c(C3=NC(C)(C)C(C)(C)c4c(F)cccc43)cnc2c1Cl
3. COc1cccc2c(C3=NC(C)(C)C(F)(F)c4ccccc43)cnn12
4. CC1(C)Cc2ccccc2C(c2cnc3c(Br)cccn23)=N1
5. Cc1c(Br)ccc2c(C3=NC(C)(C)C(=O)c4ccccc43)cnn12
6. CC1(C)N=C(c2cnc3ccc(O)cn23)c2cccc(F)c2C1(C)C
7. Cc1ccc2c(C3=NC(C)(C)C(=O)c4cc(F)ccc43)cnn2c1C

["110 to 112 °C", "185 to 186 °C", "120 to 124 °C", "132 to 133 °C", "166 to 168 °C", "321 to 322 °C", "168 to 170 °C"]

* * *

Can you tell me melting point for the items I'm about to list?

Hey, can you go through the list below and give me melting point for every item?
1. Cc1cccc2ncc(C3=NC(C)(C)C(C)(C)c4c(F)cccc43)n12 [Compound E-30]
2. Cc1c(Br)ccc2c(C3=NC(C)(C)C(F)(F)c4ccccc43)cnn12 [Compound E-79]
3. C#Cc1ccc2c(C3=NC(C)(C)C(F)(F)c4ccccc43)cnn2c1 [Compound E-90]
4. CC1(C)Cc2c(F)cccc2C(c2cnc3c(Br)cccn23)=N1 [Compound E-16]
5. Cc1c(Cl)ccc2c(C3=NC(C)(C)C(F)(F)c4ccccc43)cnn12 [Compound E-91]

["139 to 140 °C", "180 to 182 °C", "145 to 147 °C", "179 to 181 °C", "166 to 168 °C"]

* * *

Give melting point for every item shown.

Recorded results for 10 molecules are shown here.
molecule	recorded-result
Cc1cccn2ncc(C3=NC(C)(C)C(=O)c4cc(F)ccc43)c12	180 to 183 °C
CC1(C)N=C(c2cnn3cccc(Br)c23)c2ccccc2C1=O	148 to 151 °C
C#Cc1cccn2c(C3=NC(C)(C)C(C)(C)c4c(F)cccc43)cnc12	169 to 170 °C
COc1ccc2ncc(C3=NC(C)(C)C(C)(C)c4c(F)cccc43)n2c1	214 to 215 °C
CC1(C)N=C(c2cnn3cc(Br)ccc23)c2ccccc2C1(F)F	127 to 129 °C
CC1(C)N=C(c2cnc3c(F)cccn23)c2cccc(F)c2C1O (stereo not shown)	219 °C
CC1(C)N=C(c2cnc3c(Br)cccn23)c2cccc(F)c2C1Br (stereo not shown)	217 to 218 °C
Cc1ccc2c(C3=NC(C)(C)C(C)(C)c4c(F)cccc43)cnn2c1C	175 to 176 °C
CC1(C)N=C(c2cnc3c(O)cccn23)c2cccc(F)c2C1(C)C	271 to 272 °C
CC1(C)N=C(c2cnn3ccccc23)c2ccccc2C1(F)F	78 to 82 °C

I have 2 molecules here; please give me melting point for each one.
1. CC1(C)Cc2ccccc2C(c2cnc3cc(I)ccn23)=N1
2. Cc1cccn2c(C3=NC(C)(C)C(C)(C)c4c(F)cccc43)cnc12

190 to 193 °C
160 to 161 °C

Hey, quick one: what's melting point for each of these?
1. CC1(C)N=C(c2cnc3c(Br)cccn23)c2cccc(F)c2C1=O
2. Cc1cccc2c(C3=NC(C)(C)C(C)(C)c4c(F)cccc43)cnn12
3. Cc1cccn2ncc(C3=NC(C)(C)C(=O)c4ccccc43)c12
4. Cc1ccc2c(C3=NC(C)(C)C(F)(F)c4ccccc43)cnn2c1C
5. Cc1ccn2c(C3=NC(C)(C)C(C)(C)c4c(F)cccc43)cnc2c1C

["146 to 147 °C", "134 to 136 °C", "140 to 141 °C", "160 to 161 °C", "185 to 186 °C"]

Field: melting point. Fill in for each record below.
1. CC1(C)N=C(c2cnc3c(Br)cccn23)c2ccccc2C1(F)F
2. Cc1cccn2c(C3=NCC4(CCC4)c4ccccc43)cnc12

1. 173 °C
2. 127 to 129 °C

* * *

test system: Gaeumannomyces graminis; assay: Gaeumannomyces graminis / liquid culture (Take-all of cereals); type: cell-based; conditions: growth inhibition photometrically 4-5 days after application, compared to untreated control
Please respond with reported inhibition of growth at 20 ppm for every item in the list.

Reference set (4 entries):
compound	inhibition of growth at 20 ppm
C#Cc1ccc2c(C3=NC(C)(C)C(F)(F)c4ccccc43)cnn2c1 [Compound E-90]	≥ 80%
Cc1ccc2c(C3=NC(C)(C)C(C)(C)c4c(F)cccc43)cnn2c1C [Compound E-63]	≥ 80%
Cc1cccn2ncc(C3=NC(C)(C)C(F)(F)c4ccccc43)c12 [Compound E-69]	≥ 80%
Cc1ccc2c(C3=NC(C)(C)C(=O)c4ccccc43)cnn2c1C [Compound E-64]	≥ 80%

Look up inhibition of growth at 20 ppm with Gaeumannomyces graminis for this compound: CC1(C)N=C(c2cnn3ccccc23)c2cccc(F)c2C1(C)C [Compound E-58] ≥ 80%

* * *

test system: Botryotinia fuckeliana (Botrytis cinerea); experiment: Botryotinia fuckeliana (Botrytis cinerea) / liquid culture (Gray mould); assay type: cell-based; conditions: growth inhibition photometrically 3-4 days after application, compared to untreated control
test-readout: inhibition of growth at 20 ppm

These recorded examples may help you get a feel for the data.
test-smiles	inhibition of growth at 20 ppm
Cc1ccc2c(C3=NC(C)(C)C(F)(F)c4ccccc43)cnn2c1C	≥ 80%
Cc1cccn2c(C3=NC(C)(C)C(F)(F)c4c(F)cccc43)cnc12	≥ 80%

For each of the molecules below, state inhibition of growth at 20 ppm.
1. Cc1cccn2ncc(C3=NC4(CC4)C4(CC4)c4ccccc43)c12
2. Cc1cccn2ncc(C3=NC(C)(C)C(=O)c4cc(F)ccc43)c12
3. Cc1cccc2c(C3=NC(C)(C)C(C)(C)c4c(F)cccc43)cnn12
4. Cc1nc2c(C)cccn2c1C1=NC(C)(C)C(C)(C)c2c(F)cccc21
5. CC1(C)N=C(c2cnc3c(F)cccn23)c2cccc(F)c2C1(C)C

["≥ 80%", "≥ 80%", "≥ 80%", "≥ 80%", "≥ 80%"]

For each of the items listed, what is its inhibition of growth at 20 ppm?
1. CC1(C)N=C(c2cnc3c(C(F)(F)F)cccn23)c2cccc(F)c2C1(C)C
2. Cc1cccn2c(C3=NC(C)(C)C(F)(F)c4ccccc43)cnc12

["≥ 80%", "≥ 80%"]

// provenance: patent US10906897B2
